System: KB-3-1
Method Summary: Cytotoxic Profiling of Annotated Libraries Using Quantitative High-Throughput Screening (AID 1296008); further: on the % scale 0 is the no-effect control and ±100 the full control effect; nearly all actives have a fitted effect of over 60% in size
Condition Details: Five cell lines viability, CellTiter-Glo ATP luminescence, 48-72 h; stronger effect = lower value
Procedure: Cell-based phenotypic screening is a commonly used approach to discover biological pathways, novel drug targets, chemical probes and high-quality hit-to-lead molecules. […] A pintool (Kalypsys) was used to transfer 23 nL of compound solution to the 1536-well assay plates. […] Plates were left at room temperature for 10 min before imaging the ATP-coupled luminescence using a ViewLux microplate imager (PerkinElmer, Waltham, MA).
Results filed as inconclusive are left out.
Measurement Name: max response (%)
Report as a plain number; the unit % is understood.

O=C(/C=C/c1ccc(O)cc1)O[C@H]1[C@H](OC2CCCCC2O)O[C@H](CO)[C@@H](O)[C@@H]1O (stereo not given in full)
5.56
CC1(C(=O)O)CCCC2(C)C3CC4C5CC3(CCC12)CC45C (stereo not given)
4.9
COc1ccc(/C=C/C(=O)O[C@@H]2[C@@H](O)[C@@H](O)[C@H](O[C@H]3[C@@H]4C=CO[C@@H](O[C@@H]5O[C@H](CO)[C@@H](O)[C@H](O)[C@H]5O)[C@@H]4[C@@]4(CO)O[C@@H]34)O[C@H]2C)cc1
1.26
O=C(CC1CC(c2ccc(F)cc2F)=NO1)N1CCOCC1 (stereo not given)
-13.2
CCCCC(=O)N1c2ccccc2NC2=C(C(=O)CCC2)C1c1ccccc1Cl (stereo not given)
6.63
C=CC(C)(CC/C=C(\C)C(=O)OC)OC1OC(COC(=O)CC(C)(O)CC(=O)O)C(O)C(O)C1O (stereo not given)
1.2
CC(C)c1c(NC(=O)Nc2ccc(Cl)cc2)c(=O)n(-c2ccccc2)n1C
-6.5
COc1cc2c(c(O)c1OC/C=C(\C)CC/C=C(/C)CCC=C(C)C)CN(C(CCC(=O)O)C(=O)O)C2=O (stereo not given)
3.38
Cc1sc(C)c(C(=O)NC2(c3ccc(C(=O)O)cc3)CC2)c1Cc1ccc(C(F)(F)F)cc1
8.32

API: the following record is the query input.
Query :: Requested read-out: max response. Entry: `COc1cc(CO)ccc1O[C@@H]1O[C@H](CO)[C@@H](O)[C@H](O)[C@H]1O`
Result :: 5.53

---

Tested on: Zika virus NS2B-NS3 protease (linked construct)
Method Summary: Primary screen NINDS Rhodamine qHTS for Zika virus inhibitors (AID 1347160); further: nearly all actives have a fitted effect of over 55% in size
Condition Details: purified NS2B-NS3 protease, Rhodamine110 substrate fluorescence; series mostly up to 33.1 µM
Results filed as inconclusive are left out. Calls of active or inactive are those of the source. Calls follow the shape of the dose curve; as a rule, active = well fitted inhibition curve with a large enough effect; inconclusive = small, poorly fitted or top-dose-only effect; inactive = no such curve, though single readings can be large or run the other way.
Could you please pick one outcome from this set? active, inactive

C[C@@H]1O[C@@H](O[C@H]2[C@H](OC(=O)[C@]34CCC(C)(C)C[C@H]3C3=CCC5[C@@]6(C)C[C@@H](O)[C@@H](O)[C@@](C)(CO)C6[C@H](O)C[C@@]5(C)[C@]3(C)CC4)OC[C@H](O)[C@@H]2O)[C@H](O)[C@H](O)[C@H]1O[C@@H]1OC[C@@H](O)[C@H](O[C@H]2O[C@H](C)[C@@H](O)[C@H](O)[C@@H]2O)[C@H]1O (stereo partly specified)
inactive

Query :: So what was the verdict on CC1=CC(=O)CC(C)(C)C1CCC(C)O[C@@H]1O[C@H](CO)[C@@H](O)[C@H](O)[C@H]1O (stereo partly specified) in this test?
Result :: inactive

Query :: Try C=CC(C)(CC/C=C(\C)C(=O)OC)OC1OC(COC(=O)CC(C)(O)CC(=O)O)C(O)C(O)C1O (stereo unspecified) next.
Result :: inactive

Source of measurements: PubChem BioAssay (NCATS)
